Provide the recorded Kd for the entries that follow.
Target: Ba/F3 BCR-FGFR1 (Homo sapiens, UniProt P11362)
Construct: BCR (fusion partner); host or cells: Ba/F3; the other entry of the earlier key: BCR (P11274, Breakpoint cluster region protein)
Sequence (P11362 478-767 limits assumed): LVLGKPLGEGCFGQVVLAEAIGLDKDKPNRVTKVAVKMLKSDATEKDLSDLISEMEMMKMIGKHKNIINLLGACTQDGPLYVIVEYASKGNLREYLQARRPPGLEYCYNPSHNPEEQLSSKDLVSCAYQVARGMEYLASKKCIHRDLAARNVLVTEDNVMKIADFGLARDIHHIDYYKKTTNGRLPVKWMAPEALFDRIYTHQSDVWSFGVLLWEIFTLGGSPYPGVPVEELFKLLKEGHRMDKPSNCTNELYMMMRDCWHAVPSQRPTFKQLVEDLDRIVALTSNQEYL
Test: Ba/F3 cell viability assay (CellTiter-Glo 2.0)
Type: cell-based
Details: Ba/F3 cell data, BCR-FGFR1 fusion, 48 hours

Below, 2 compounds whose answers are already recorded.
C=CC(=O)N1CC(F)(C(=O)N2CCC(n3nnc(-c4cc(O[C@H](CO)c5ccccn5)c5c(C#N)cnn5c4)c3C)CC2)C1 (single isomer, unassigned) [Example 20]
≥ 1000 nM
C=CC(=O)N1CCC(n2ncc(-c3cc(O[C@H](CO)c4ccc(F)cn4)c4c(C#N)cnn4c3)c2C)CC1 [Example 1]
250 to 1000 nM

With those in mind, consider the next compound.
Lab request: please report Kd under test system Ba/F3 BCR-FGFR1 (Homo sapiens, UniProt P11362) for C=CC(=O)N1CC(OC)(C(=O)N2CCC(n3nnc(-c4cc(O[C@@H](CO)c5ccccn5)c5c(C#N)cnn5c4)c3C)CC2)C1 [Example 21]
≥ 1000 nM

----------
Provide the recorded Kd for the entries that follow.
Biological target: Ba/F3 FGFR3-BAIAP2L1 (Homo sapiens, UniProt P22607)
Construct: BAIAP2L1 (fusion partner, Q9UHR4 if human); host or cells: Ba/F3; the other entry of the earlier key: BAIAP2L1 (Q9UHR4, BAR/IMD domain-containing adapter protein 2-like 1)
Sequence (P22607 397-758 limits assumed): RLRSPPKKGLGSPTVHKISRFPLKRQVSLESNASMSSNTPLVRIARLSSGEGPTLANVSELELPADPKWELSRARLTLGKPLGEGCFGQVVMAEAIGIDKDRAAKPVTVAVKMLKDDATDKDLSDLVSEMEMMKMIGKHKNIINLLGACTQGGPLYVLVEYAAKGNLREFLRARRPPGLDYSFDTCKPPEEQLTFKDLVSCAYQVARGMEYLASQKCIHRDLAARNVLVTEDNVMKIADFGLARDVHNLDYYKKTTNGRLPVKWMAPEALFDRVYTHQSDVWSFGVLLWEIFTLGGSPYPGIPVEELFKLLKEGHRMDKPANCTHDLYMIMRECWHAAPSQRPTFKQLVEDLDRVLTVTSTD
Test: Ba/F3 cell viability assay (CellTiter-Glo 2.0)
Assay type: cell-based
Details: Ba/F3 cell data, FGFR3-BAIAP2L1 fusion, 48 hours

C=CC(=O)N1CCC2(CC1)CC(n1ncc(-c3cc(O[C@@H](CO)c4ccccn4)c4c(C#N)cnn4c3)c1C)C2
100 to 250 nM
C=CC(=O)N1CCC2(CC1)CC(n1ncc(-c3cc(OC(CO)c4ccnn4C)c4c(C#N)cnn4c3)c1C)C2 (stereo not drawn)
250 to 1000 nM
CCC(=O)N1CCC2(CC1)CC(n1cc(-c3cc(O[C@H](CO)c4ccc(F)cn4)c4c(C#N)cnn4c3)cn1)C2
0.1 to 100 nM
C=CC(=O)N1CC(F)(C(=O)N2CCC(n3nnc(-c4cc(O[C@H](CO)c5ccccn5)c5c(C#N)cnn5c4)c3C)CC2)C1 (single isomer, unassigned)
0.1 to 100 nM
COC1(C(=O)N2CCC(n3nnc(-c4cc(OC(CO)c5ccccn5)c5c(C#N)cnn5c4)c3C)CC2)CN(C(=O)/C=C/CN(C)C)C1 (stereo not drawn)
250 to 1000 nM
C=CC(=O)N1CCC2(CC1)CC(n1nnc(-c3cc(O[C@@H](CO)c4ccc(F)cn4)c4c(C#N)cnn4c3)c1C)C2
250 to 1000 nM

Parameter requested: Kd. Apply to each item below.
1. C=CC(=O)N1CCC2(CC1)CC(n1nnc(-c3cc(O[C@H](CO)c4ccc(F)cn4)c4c(C#N)cnn4c3)c1C)C2
2. C=CC(=O)N1CCC(n2ncc(-c3cc(O[C@H](CO)c4ccc(F)cn4)c4c(C#N)cnn4c3)c2C)CC1

0.1 to 100 nM
0.1 to 100 nM

----------
Provide the recorded IC50 for the entries that follow.
System: KatoIIII
Assay: Cancer cell line cell viability assay (CellTiter-Glo 2.0)
Assay type: cell-based
Settings: 72 hours

C=CC(=O)N1CCC(n2ncc(-c3cc(O[C@H](CO)c4ccc(F)cn4)c4c(C#N)cnn4c3)c2C)CC1
100 to 250 nM

Parameter requested: IC50. Apply to each item below.
1. C=CC(=O)N1CCC2(CC1)CC(n1nnc(-c3cc(O[C@H](CO)c4ccc(F)cn4)c4c(C#N)cnn4c3)c1C)C2
2. C=CC(=O)N1CCC2(CC1)CC(n1ncc(-c3cc(O[C@H](CO)c4ccc(F)cn4)c4c(C#N)cnn4c3)c1C)C2
3. C=CC(=O)N1CC(C(=O)N2CCC(n3nnc(-c4cc(O[C@H](CO)c5ccccn5)c5c(C#N)cnn5c4)c3C)CC2)C1 (single isomer, unassigned)
4. C=CC(=O)N1CCC(n2ncc(-c3cc(O[C@@H](CO)c4ccc(F)cn4)c4c(C#N)cnn4c3)c2C)CC1
5. C=CC(=O)N1CC(F)(C(=O)N2CCC(n3nnc(-c4cc(O[C@H](CO)c5ccccn5)c5c(C#N)cnn5c4)c3C)CC2)C1 (single isomer, unassigned)
6. C=CC(=O)N1CCC2(CC1)CC(n1nnc(-c3cc(O[C@H](C)c4ccccn4)c4c(C#N)cnn4c3)c1C)C2
7. C=CC(=O)N1CC(OC)(C(=O)N2CCC(n3nnc(-c4cc(O[C@H](CO)c5ccccn5)c5c(C#N)cnn5c4)c3C)CC2)C1

1: 100 to 250 nM; 2: 250 to 1000 nM; 3: ≥ 1000 nM; 4: 250 to 1000 nM; 5: ≥ 1000 nM; 6: 0.1 to 100 nM; 7: ≥ 1000 nM

Parameter requested: IC50. Apply to each item below.
1. C=CC(=O)N1CCC2(CC1)CC(n1ncc(-c3cc(OC(CO)c4ccn(C)n4)c4c(C#N)cnn4c3)c1C)C2 (stereo not shown)
2. C=CC(=O)N1CCC2(CC1)CC(n1ncc(-c3cc(O[C@H](CO)c4ccccn4)c4c(C#N)cnn4c3)c1C)C2

1: 250 to 1000 nM; 2: 100 to 250 nM

----------
Target: FGFR3 (V555M) (Homo sapiens, UniProt P22607, V555M)
Construct: made in house; host or cells: E. coli (BL21-derived) infected with T7 phage
Sequence (P22607 23-806 V555M): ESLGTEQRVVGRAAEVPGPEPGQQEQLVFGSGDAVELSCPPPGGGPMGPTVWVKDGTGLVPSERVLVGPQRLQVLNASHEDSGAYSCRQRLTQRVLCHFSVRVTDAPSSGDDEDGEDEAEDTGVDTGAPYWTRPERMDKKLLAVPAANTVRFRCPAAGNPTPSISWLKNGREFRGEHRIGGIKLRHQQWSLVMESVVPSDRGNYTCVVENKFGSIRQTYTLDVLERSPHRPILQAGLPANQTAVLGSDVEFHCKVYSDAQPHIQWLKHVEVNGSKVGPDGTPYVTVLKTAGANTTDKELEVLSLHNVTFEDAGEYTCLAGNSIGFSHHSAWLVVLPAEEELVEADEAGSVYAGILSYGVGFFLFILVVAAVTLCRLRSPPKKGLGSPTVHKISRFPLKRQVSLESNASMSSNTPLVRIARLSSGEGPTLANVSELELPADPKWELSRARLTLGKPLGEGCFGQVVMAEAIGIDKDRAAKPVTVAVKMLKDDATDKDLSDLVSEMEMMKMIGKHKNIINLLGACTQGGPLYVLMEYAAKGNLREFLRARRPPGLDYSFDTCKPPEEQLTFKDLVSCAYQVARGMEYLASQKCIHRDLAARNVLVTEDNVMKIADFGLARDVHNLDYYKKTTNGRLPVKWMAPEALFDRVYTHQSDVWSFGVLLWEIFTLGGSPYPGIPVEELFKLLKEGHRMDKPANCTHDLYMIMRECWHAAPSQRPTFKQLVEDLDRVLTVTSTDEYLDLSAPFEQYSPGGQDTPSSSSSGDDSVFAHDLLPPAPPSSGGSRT
Assay: Kinase binding assay (Kd), kinase-tagged T7 phage, affinity beads, qPCR
Settings: in vitro binding assay, 11-point 3-fold dilution series
Description: Kinase-tagged T7 phage strains were prepared in an E. coli host derived from the BL21 strain. E. coli were grown to log-phase and infected with T7 phage and incubated with shaking at 32° C. until lysis. The lysates were centrifuged and filtered to remove cell debris. […] Test compounds were prepared as 111× stocks in 100% DMSO. Kds were determined using an 11-point 3-fold compound dilution series with three DMSO control points. […] The kinase concentration in the eluates was measured by qPCR. […]
Provide the recorded Kd for the entries that follow.

Below, 3 molecules whose answers are already recorded.
C=CC(=O)N1CCC2(CC1)CC(n1ncc(-c3cc(OC(CO)c4cncc5ccccc45)c4c(C#N)cnn4c3)c1C)C2 (stereo not shown)
0.1 to 100 nM
C=CC(=O)N1CCC2(CC1)CC(n1nnc(-c3cc(O[C@@H](CO)c4ccc(F)cn4)c4c(C#N)cnn4c3)c1C)C2
250 to 1000 nM
C#CC(=O)N1CC(OC)(C(=O)N2CCC(n3nnc(-c4cc(OC(CO)c5ccccn5)c5c(C#N)cnn5c4)c3C)CC2)C1 (stereo not shown)
0.1 to 100 nM

With those in mind, consider the next molecule.
Return reported Kd; argument: C=CC(=O)N1CCC2(CC1)CC(n1nnc(-c3cc(O[C@H](CO)c4ccc(F)cn4)c4c(C#N)cnn4c3)c1C)C2
0.1 to 100 nM

----------
Test system: RT112/84
Assay: Cancer cell line cell viability assay (CellTiter-Glo 2.0)
Format: cell-based
Conditions: Homo sapiens; RT112/84 (FGFR3-fusion) cell viability, 72 hours
Provide the recorded IC50 for the entries that follow.

C=CC(=O)N1CCC2(CC1)CC(n1ncc(-c3cc(OC(CO)c4ccn(C)n4)c4c(C#N)cnn4c3)c1C)C2 (stereo not drawn) [Example 14]
250 to 1000 nM
C=CC(=O)N1CCC2(CC1)CC(n1ncc(-c3cc(O[C@H](CO)c4ccc(F)cn4)c4c(C#N)cnn4c3)c1C)C2 [Example 9]
250 to 1000 nM
C=CC(=O)N1CCC2(CC1)CC(n1nnc(-c3cc(O[C@H](CO)c4ccc(F)cn4)c4c(C#N)cnn4c3)c1C)C2 [Example 13]
100 to 250 nM
C=CC(=O)N1CC(OC)(C(=O)N2CCC(n3nnc(-c4cc(O[C@H](CO)c5ccccn5)c5c(C#N)cnn5c4)c3C)CC2)C1 [Example 22]
≥ 1000 nM

Parameter requested: IC50. Apply to each item below.
1. C=CC(=O)N1CCC(n2ncc(-c3cc(O[C@H](CO)c4ccc(F)cn4)c4c(C#N)cnn4c3)c2C)CC1 [Example 1]
2. C=CC(=O)N1CC(F)(C(=O)N2CCC(n3nnc(-c4cc(O[C@H](CO)c5ccccn5)c5c(C#N)cnn5c4)c3C)CC2)C1 (single isomer, unassigned) [Example 20]

1: 100 to 250 nM; 2: 100 to 250 nM

----------
Target: FGFR3 (Homo sapiens)
Construct: made in house; host or cells: E. coli (BL21-derived) infected with T7 phage
Sequence (P22607 23-806): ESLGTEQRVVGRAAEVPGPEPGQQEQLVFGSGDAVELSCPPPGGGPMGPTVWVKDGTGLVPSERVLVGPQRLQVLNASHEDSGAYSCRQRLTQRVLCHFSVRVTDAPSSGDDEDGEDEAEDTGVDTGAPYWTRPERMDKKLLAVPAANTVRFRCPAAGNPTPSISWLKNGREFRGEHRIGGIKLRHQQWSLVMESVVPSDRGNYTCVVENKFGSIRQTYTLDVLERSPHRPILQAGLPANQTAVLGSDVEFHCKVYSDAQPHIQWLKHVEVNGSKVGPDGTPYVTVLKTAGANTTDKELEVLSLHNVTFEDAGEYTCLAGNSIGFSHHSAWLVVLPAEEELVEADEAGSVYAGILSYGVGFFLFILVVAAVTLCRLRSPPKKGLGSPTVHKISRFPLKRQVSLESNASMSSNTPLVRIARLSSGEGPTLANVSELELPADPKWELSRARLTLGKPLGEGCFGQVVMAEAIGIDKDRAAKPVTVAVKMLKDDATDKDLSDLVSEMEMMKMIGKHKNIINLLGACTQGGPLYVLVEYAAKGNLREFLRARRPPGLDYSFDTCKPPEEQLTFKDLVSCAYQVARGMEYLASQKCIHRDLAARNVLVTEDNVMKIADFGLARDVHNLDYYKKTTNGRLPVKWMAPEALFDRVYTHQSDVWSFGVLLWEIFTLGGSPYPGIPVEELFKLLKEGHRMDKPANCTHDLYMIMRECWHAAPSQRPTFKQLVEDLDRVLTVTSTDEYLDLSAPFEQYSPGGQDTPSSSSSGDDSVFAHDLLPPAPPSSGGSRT
Assay: Kinase binding assay (Kd), kinase-tagged T7 phage, affinity beads, qPCR
Settings: in vitro binding assay, 11-point 3-fold dilution series
Readout Label: Kd

Below, 2 compounds whose answers are already recorded.
C=CC(=O)N1CCC2(CC1)CC(n1nnc(-c3cc(O[C@H](CO)c4ccc(F)cn4)c4c(C#N)cnn4c3)c1C)C2
0.1 to 100 nM
C=CC(=O)N1CCC2(CC1)CC(n1nnc(-c3cc(O[C@H](C)c4ccccn4)c4c(C#N)cnn4c3)c1C)C2
0.1 to 100 nM

With those in mind, consider the next compound.
Return reported Kd; argument: C=CC(=O)N1CC(F)(C(=O)N2CCC(n3nnc(-c4cc(O[C@H](CO)c5ccccn5)c5c(C#N)cnn5c4)c3C)CC2)C1 (single isomer, unassigned)
0.1 to 100 nM

Origin of values: patent US20260209223A1
